// reported residual activity for each item listed
- System Name: EEF2K (human) (UniProt O00418)
- Sequence (O00418 whole entry, looked up): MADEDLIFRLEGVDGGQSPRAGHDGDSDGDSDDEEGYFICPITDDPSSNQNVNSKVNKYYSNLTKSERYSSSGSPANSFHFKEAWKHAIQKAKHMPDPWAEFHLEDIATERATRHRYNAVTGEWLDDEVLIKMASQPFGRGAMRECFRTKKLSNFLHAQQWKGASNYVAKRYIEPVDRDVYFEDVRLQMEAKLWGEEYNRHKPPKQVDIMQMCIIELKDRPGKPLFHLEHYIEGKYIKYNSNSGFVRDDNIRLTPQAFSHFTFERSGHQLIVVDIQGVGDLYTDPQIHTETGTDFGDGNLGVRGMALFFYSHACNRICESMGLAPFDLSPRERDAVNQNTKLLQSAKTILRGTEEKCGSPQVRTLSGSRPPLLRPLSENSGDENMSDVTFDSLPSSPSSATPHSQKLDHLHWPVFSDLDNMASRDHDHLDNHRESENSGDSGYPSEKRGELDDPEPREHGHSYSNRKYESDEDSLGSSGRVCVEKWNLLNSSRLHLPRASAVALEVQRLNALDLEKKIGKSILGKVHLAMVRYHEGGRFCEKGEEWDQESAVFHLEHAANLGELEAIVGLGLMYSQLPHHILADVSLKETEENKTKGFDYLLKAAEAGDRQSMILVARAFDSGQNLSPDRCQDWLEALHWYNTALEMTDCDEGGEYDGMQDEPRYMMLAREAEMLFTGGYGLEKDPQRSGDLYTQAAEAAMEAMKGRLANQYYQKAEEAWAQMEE
- Method: radiometric filter-binding kinase assay
- Stated Conditions: compound 10.0 µM
Readout: residual activity (%)

>>> number("N#Cc1c(C2CCNCC2)cc(-c2c(O)cccc2OCC2CC2)nc1N")
56
>>> number("O=C(N[C@@H](COc1ccc2[nH]c(=O)[nH]c2c1)c1ccccc1)c1cccn(Cc2ccc(F)c(F)c2)c1=O")
107
>>> number("CC1=C(CO)C(=O)O[C@@H]([C@@H](C)[C@H]2CC[C@H]3[C@@H]4C[C@H]5O[C@]56[C@@H](O)C=CC(=O)[C@]6(C)C4CC[C@]23C)C1 (stereo partly specified)")
97
>>> number("N#Cc1c(O)c2c(-c3ccc(-c4ccccc4O)cc3)csc2[nH]c1=O")
89
>>> number("CN1C(=O)[C@@H](Cc2c[nH]c3ccccc23)NC1=S")
75
>>> number("NC(=O)c1ccc(-c2ccc(Oc3cncc4sc(-c5nn[nH]n5)cc34)cc2)cc1")
101
>>> number("CCOC(=O)c1ccc(N2NC(=O)/C(=C/c3ccc([N+](=O)[O-])o3)C2=O)cc1")
97
>>> number("NC(=O)c1cc2c(-c3cccc(-c4ccccc4)c3)cnc(N)c2s1")
117
>>> number("C[C@H]1CCCC(=O)CCC/C=C/c2cc(O)cc(O)c2C(=O)O1")
85
>>> number("NCC(=O)Nc1ccc(-n2nc(C(F)(F)F)cc2-c2ccc3c(ccc4ccccc43)c2)cc1")
75
>>> number("COc1ccc2c(c1)c1c3c(c4c5ccccc5n(C)c4c1n2CC(O)CN(C)C)C(=O)NC3=O (stereo unspecified)")
108
>>> number("c1ccc2c(-c3cnn4cc(-c5ccc(N6CCNCC6)cc5)cnc34)ccnc2c1")
79
>>> number("NC(=O)c1cc(-c2ccnc(NC3CCCCC3)c2)nc(N2CCNCC2)c1")
87
>>> number("NC(=O)Nc1ccc2c(c1)/C(=C/c1cc(-c3cccnc3)c[nH]1)C(=O)N2")
116
>>> number("O=C(Nc1ccccc1-c1cn2c(CN3CCNCC3)csc2n1)c1cnc2ccccc2n1")
117
>>> number("COc1cc2ncn(-c3cc(OCc4ccccc4S(C)(=O)=O)c(C#N)s3)c2cc1OC")
98
>>> number("Cc1nc(-c2ccc(OCC(C)C)c(C#N)c2)sc1C(=O)O")
95
>>> number("Cc1cccc(Nc2nn(C)c3ncnc(N)c23)c1")
96
>>> number("Cc1ccc(Sc2cnc(Nc3cccc(Br)n3)s2)cc1C(=O)N1CCN(C(=O)CN)CC1")
92
>>> number("Cc1ccc(=O)n(-c2ccccc2)c1")
87
>>> number("Oc1ccc(/C=C/c2cc(O)cc(O)c2)cc1")
69
>>> number("Nc1cccc2c1CN(C1CCC(=O)NC1=O)C2=O (stereo unspecified)")
82
>>> number("CC(C)C[C@H](NC(=O)CNC(=O)c1cc(Cl)ccc1Cl)B1OC(=O)CC(CC(=O)O)(C(=O)O)O1 (stereo partly specified)")
83
>>> number("CCn1c(-c2nonc2N)nc2cncc(CNC3CCNCC3)c21")
117
>>> number("FC(F)(F)c1ccc(-c2ccc(Oc3cncc4sc(-c5nn[nH]n5)cc34)cc2)cc1")
80
>>> number("O=C(O)c1cc(N=Nc2ccc(S(=O)(=O)Nc3ccccn3)cc2)ccc1O")
109
>>> number("Cc1ccc(-c2ccc3c(ccc4sc5c(c43)NC[C@@H](C)NC5=O)n2)cn1")
85
>>> number("O=C(NOCC(O)CO)c1ccc(F)c(F)c1Nc1ccc(I)cc1Cl (stereo unspecified)")
92
>>> number("NS(=O)(=O)OC[C@@H]1C[C@@H](n2ccc3c(N[C@H]4CCc5ccccc54)ncnc32)C[C@@H]1O")
107
>>> number("C=CC(=O)N1CCC[C@@H](n2nc(-c3ccc(Oc4ccccc4)cc3)c3c(N)ncnc32)C1")
90
>>> number("O=S(=O)(c1ccc(F)c2nonc12)N1CCN(c2ncc(C(F)(F)F)cc2Cl)CC1")
79
>>> number("NC1(c2ccc(-c3nc4ccn5c(=O)[nH]nc5c4cc3-c3ccccc3)cc2)CCC1")
109
>>> number("NC(=O)c1c(NC(=O)C2CC2)sc2c1CCCC2")
90
>>> number("Oc1ccc2ccccc2c1SSc1c(O)ccc2ccccc12")
89
>>> number("CC(C)(C#N)c1ccc(N2C(=O)OCc3cnc4ccc(-c5cnc6ccccc6c5)cc4c32)cc1")
109
>>> number("O=c1c(O)c(-c2ccc(O)c(O)c2)oc2cc(O)c(O)c(O)c12")
109
